target_desc: Alpha-2C adrenergic receptor (Homo sapiens) (UniProt P18825)
Sequence (P18825 whole entry, looked up): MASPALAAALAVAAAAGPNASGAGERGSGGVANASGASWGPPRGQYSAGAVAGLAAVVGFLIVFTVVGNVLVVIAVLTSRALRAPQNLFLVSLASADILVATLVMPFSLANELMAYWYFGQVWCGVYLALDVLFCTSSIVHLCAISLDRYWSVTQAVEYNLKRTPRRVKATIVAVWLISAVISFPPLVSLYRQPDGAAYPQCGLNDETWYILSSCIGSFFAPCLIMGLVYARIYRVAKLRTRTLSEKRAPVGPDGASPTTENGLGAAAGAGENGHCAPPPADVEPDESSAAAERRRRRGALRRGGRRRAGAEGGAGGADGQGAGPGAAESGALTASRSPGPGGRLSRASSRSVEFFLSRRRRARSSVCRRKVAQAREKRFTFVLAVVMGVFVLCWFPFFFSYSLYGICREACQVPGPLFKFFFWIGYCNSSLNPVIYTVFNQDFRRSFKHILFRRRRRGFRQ
test_details: compounds altering alpha2C-coupled GIRK flux – cell-based, HEK293 alpha2C/GIRK1/2, thallium flux, primary screen (AID 624);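 also: slope of fluorescence ratio to pre-addition baseline per second over 15 to 24 s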
experimental_setup: thallium flux BTC fluorescence, at 10 µM, actives lie on both sides
Rule: slope of 0.006 or more gives true; anything lower gives false.

COCCn1c(C)cc(C(=O)COC(=O)c2ccc(N3CCCC3=O)cc2)c1C :: false
Cc1cc2cc(CNC(=O)c3ccc4c(c3)OCO4)ccc2[nH]1 :: false
CCOC(=O)c1cnc(-n2nc(C)cc2C)nc1N1CC(C)OC(C)C1 (stereo unspecified) :: false
COC(=O)CCn1nnc(-c2ccc(C)cc2)n1 :: true
COc1cccc(OCCSc2nnc3sc4ccccc4n23)c1 :: true
COc1ccc(C2C(C(=O)c3sc(C)nc3C)=C(O)C(=O)N2CCN(C)C)cc1 (stereo unspecified) :: false
Cc1ccc(S(=O)(=O)N2CCN(c3nc(C)nc4sc(C)c(C)c34)CC2)cc1 :: true
CCC(=O)c1cc(F)c(N2CCN(C(=O)c3ccco3)CC2)cc1C :: false
CCOC(=O)C1C(=O)N(C(=O)c2ccc(OC)cc2)CC1c1ccccc1 (stereo unspecified) :: true
Cc1cc(C(=O)Nc2nnc(C(F)(F)F)s2)no1 :: true
